// data source = patent US6891057B2

# system_under_test: horseradish peroxidase (HRP) (Armoracia rusticana)
# Sequence (P00433 31-338 limits assumed): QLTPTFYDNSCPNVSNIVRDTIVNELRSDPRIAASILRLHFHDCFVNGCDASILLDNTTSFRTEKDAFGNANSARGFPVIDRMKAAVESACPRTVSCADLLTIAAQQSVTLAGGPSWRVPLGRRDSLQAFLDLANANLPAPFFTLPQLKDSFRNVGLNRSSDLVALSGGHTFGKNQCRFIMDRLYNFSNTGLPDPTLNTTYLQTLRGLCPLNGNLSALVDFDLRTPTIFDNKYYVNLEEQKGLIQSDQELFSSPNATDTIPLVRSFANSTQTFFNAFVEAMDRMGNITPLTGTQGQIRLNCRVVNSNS
# assay_comment: Chemiluminescent detection of HRP: reaction of compound with peroxidase and peroxide
# Format: biochemical
# test_conditions: 0.01 M tris pH 8.0, 0.5 mM urea peroxide, 0.1 mM p-phenylphenol, 1 mM EDTA, 0.025% Tween 20, 5×10^−5 M acridan; HRP 3.5×10^−16 to 1.4×10^−15 moles
outcome_measure: time to maximum chemiluminescence intensity (min)
Provide the reading as a plain figure in min.

Study these solved cases before continuing.
{"structure_smiles": "CC(=O)OC(Oc1ccccc1)=C1c2ccccc2N(C)c2ccccc21", "measurement_unit": "min", "measured_value": 30}
{"structure_smiles": "CCOP(=O)(OCC)OC(Sc1ccccc1)=C1c2ccccc2N(C)c2ccccc21", "measurement_unit": "min", "measured_value": 1}
{"structure_smiles": "COC(Sc1ccccc1)=C1c2ccccc2N(C)c2ccccc21", "measurement_unit": "min", "measured_value": 7}

Lab note: next molecule to report on.
Value of measured time to maximum chemiluminescence intensity for the entry CC(=O)OC(Sc1ccccc1)=C1c2ccccc2N(C)c2ccccc21 : 7
